Target: human CCR5 (Homo sapiens)
Construct: expressed in transfected cells
Sequence (P51681 whole entry): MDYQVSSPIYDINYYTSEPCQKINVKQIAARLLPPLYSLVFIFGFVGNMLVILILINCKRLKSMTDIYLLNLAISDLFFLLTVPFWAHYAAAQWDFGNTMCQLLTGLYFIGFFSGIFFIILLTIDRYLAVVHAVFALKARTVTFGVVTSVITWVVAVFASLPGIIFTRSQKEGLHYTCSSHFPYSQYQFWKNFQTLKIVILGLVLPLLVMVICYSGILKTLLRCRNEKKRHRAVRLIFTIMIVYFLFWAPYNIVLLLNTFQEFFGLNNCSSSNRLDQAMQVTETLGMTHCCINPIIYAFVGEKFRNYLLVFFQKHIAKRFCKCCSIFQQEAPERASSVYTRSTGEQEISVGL
Experiment: Inhibition of [125I]-RANTES binding to CCR5/CHO cells (CCR5 antagonist activity)
Conditions: test compound 1 μM; [125I]-RANTES 100 pM; CCR5/CHO strains; room temperature, 40 minutes
Entries and their Binding Inhibitory Ratio (%)
Lab book: enter the figure in %, no units written.

* CCCCOCCOc1ccc(-c2ccc(N3CCC(C(=O)OC)C3)c(/C=C(\C)C(=O)Nc3ccc([S@@+]([O-])Cc4cncn4CCC)cc3)c2)cc1 (single isomer, unassigned) | 95
* CCCCOCCOc1ccc(-c2ccc(N3CCC(O)C3)c(/C=C(\C)C(=O)Nc3ccc([S@@+]([O-])Cc4cncn4CCC)cc3)c2)cc1 (stereo partly shown) | 90
* CCCCOCCOc1ccc(-c2ccc(N3CCC(C(=O)O)C3)c(/C=C(\C)C(=O)Nc3ccc([S@@+]([O-])Cc4cncn4CCC)cc3)c2)cc1 (single isomer, unassigned) | 91

Consider the additional compound presented here.
**Query** Entry `CCCCOCCOc1ccc(-c2cc(/C=C(\C)C(=O)Nc3ccc([S@@+]([O-])Cc4cncn4CCC)cc3)c3c(c2)CCCN3C)cc1` : reported Binding Inhibitory Ratio (%) = ?
**Result** 100
